Each entry below lists one item and its recorded ED50 value.
System: abdominal constriction response
Experiment: abdominal constriction response (analgesic activity, acetylcholine chloride-induced, s.c. dosing)
Format: in vivo, mice
Conditions: Mus musculus, sc; subcutaneous, 10 min before i.p. acetylcholine chloride (3.2 mg/kg); mice; read-out: ED50
Counter-ions that a name gives are not always drawn.

Some compounds with recorded ED50:
| compound | experimental.value |
| --- | --- |
| CCN(CC)CCNC(=O)c1cccc(CC(C)C)c1O [Example 5, hydrochloride] | 44.5 mg/kg |
| CCN(CC)CCNC(=O)c1ccccc1O.Cl [Control, reference compound] | 16.6 mg/kg |

Query string: Given the entry CCN(CC)CCNC(=O)c1cccc(C(C)(C)C)c1O [Example 6, hydrochloride] , what ED50 was observed with abdominal constriction response?
Result string: 14.3 mg/kg

Query string: Given the entry C=CCc1cccc(C(=O)NCCN(CC)CC)c1O [Example 8, oxalate] , what ED50 was observed with abdominal constriction response?
Result string: 17.2 mg/kg

Query string: Given the entry CCN(CC)CCNC(=O)c1cccc(C(C)C)c1O [Example 1, hydrochloride] , what ED50 was observed with abdominal constriction response?
Result string: 12.7 mg/kg

Query string: Given the entry CCCCc1cccc(C(=O)NCCN(CC)CC)c1O [Example 4, oxalate] , what ED50 was observed with abdominal constriction response?
Result string: 31 mg/kg

Query string: Given the entry C=C(C)Cc1cccc(C(=O)NCCN(CC)CC)c1O [Example 9, oxalate] , what ED50 was observed with abdominal constriction response?
Result string: 23.8 mg/kg

The measurements presented in this section are drawn from patent US4140769A.
